Just for reference, patent US20240336591A1 is where these values come from.

# Test Target: Human PDE10A2 (Homo sapiens (Human), UniProt Q9Y233)
# Sequence (Q9Y233 267-1055): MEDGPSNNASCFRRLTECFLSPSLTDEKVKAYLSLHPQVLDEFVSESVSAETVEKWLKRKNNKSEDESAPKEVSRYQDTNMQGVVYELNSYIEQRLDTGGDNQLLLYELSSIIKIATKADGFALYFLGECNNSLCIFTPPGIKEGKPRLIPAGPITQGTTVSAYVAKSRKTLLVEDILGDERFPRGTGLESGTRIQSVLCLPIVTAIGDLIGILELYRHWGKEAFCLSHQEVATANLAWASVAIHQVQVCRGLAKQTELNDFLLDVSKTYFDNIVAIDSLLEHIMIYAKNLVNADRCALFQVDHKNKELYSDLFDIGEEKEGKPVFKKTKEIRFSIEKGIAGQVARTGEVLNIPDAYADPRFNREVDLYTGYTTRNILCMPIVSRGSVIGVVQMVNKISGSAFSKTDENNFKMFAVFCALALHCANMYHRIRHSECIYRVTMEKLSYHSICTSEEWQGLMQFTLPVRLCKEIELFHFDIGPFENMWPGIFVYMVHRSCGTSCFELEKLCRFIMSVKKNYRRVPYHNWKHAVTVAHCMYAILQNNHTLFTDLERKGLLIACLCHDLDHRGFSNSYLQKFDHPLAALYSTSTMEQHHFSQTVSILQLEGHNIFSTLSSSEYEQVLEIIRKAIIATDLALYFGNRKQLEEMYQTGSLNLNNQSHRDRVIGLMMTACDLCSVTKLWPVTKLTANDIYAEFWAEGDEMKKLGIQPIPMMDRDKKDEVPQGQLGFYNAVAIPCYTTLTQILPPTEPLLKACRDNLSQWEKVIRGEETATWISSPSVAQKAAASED
# Assay Name: Biochemical human PDE10A activity assay - PDE10A2 Phosphate Sensor Assay
# Condition Description: cGMP 3 μM substrate, PDE10A2 0.25 nM
Reported Metric: PDE10A2 Phosphate Sensor Enzyme Assay (pIC50)

1) Cn1cc(-c2ccncc2)c(-c2ccc(OCc3nc4ccccc4cc3C(=O)N=S3(=O)CCCC3)cc2)n1 [Example 13] :: 9.86
2) Cn1ncc(-c2ccncc2)c1-c1ccc(OCc2cc(C(=O)O)c3ccccc3n2)cc1 [Example 1] :: 9.43
3) Cn1cc(-c2ccncc2)c(-c2ccc(OCc3nc(N4CCNC(=O)C4)c4ccccc4n3)cc2)n1 [Example 38] :: 10.1
4) CS(C)(=O)=Nc1cc(COc2ccc(-c3n[nH]cc3-c3ccncc3)cc2)nc2ccccc12 [Example 32] :: 10.3
5) Cn1cc(-c2ccncc2)c(-c2ccc(OCc3nc4ccccc4cc3C(=O)N=S(C)(C)=O)cc2)n1 [Example 10] :: 10
6) CN(C(=O)c1cc2ccccc2nc1COc1ccc(-c2nn(C)cc2-c2ccncc2)cc1)S(C)(=O)=O [Example 15] :: 9.22
7) CNC(=O)Nc1cc(COc2ccc(-c3nn(C)cc3-c3ccncc3)cc2)nc2ccccc12 [Example 35] :: 9.67
8) Cn1cc(-c2ccncc2)c(-c2ccc(OCc3cc(NC(=O)N=S(C)(C)=O)c4ccccc4n3)cc2)n1 [Example 36] :: 9.46
9) Cn1ncc(-c2ccncc2)c1-c1ccc(OCc2nc3ccccc3cc2C(=O)O)cc1 [Example 2] :: 9.69
10) Cn1cc(-c2ccncc2)c(-c2ccc(OCc3cc(NS(C)(=O)=O)c4ccccc4n3)cc2)n1 [Example 34] :: 9.54
11) Cn1cc(-c2ccncc2)c(-c2ccc(OCc3cc(C(=O)N=S(C)(C)=O)c4c(Cl)cccc4n3)cc2)n1 [Example 26] :: 9.13
12) Cn1cc(-c2ccncc2)c(-c2ccc(OCc3nc4ccccc4cc3C(=O)N=S(C)(=O)C3CC3)cc2)n1 (stereo not drawn) [Example 14] :: 10.0
13) O=C(O)Cn1cc(-c2ccncc2)c(-c2ccc(OCc3ccc4ccccc4n3)cc2)n1 [Example 5] :: 9.41
14) Cn1cc(-c2ccncc2)c(-c2ccc(OCc3nc4ccccn4c3C(=O)N=S(C)(C)=O)cc2)n1 [Example 20] :: 9.76
15) CS(C)(=O)=NC(=O)c1cc(COc2ccc(-c3n[nH]cc3-c3ccncc3)cc2)nc2ccccc12 [Example 12] :: 9.84
16) Cn1cc(-c2ccncc2)c(-c2ccc(OCc3nc4cccc(F)c4cc3C(=O)N=S(C)(C)=O)cc2)n1 [Example 23] :: 9.59
17) CS(=N)(=O)c1cc(COc2ccc(-c3n[nH]cc3-c3ccncc3)cc2)nc2ccccc12 (stereo not drawn) [Example 33] :: 9.32
18) Cc1cccc2nc(COc3ccc(-c4nn(C)cc4-c4ccncc4)cc3)c(C(=O)N=S(C)(C)=O)cc12 [Example 7] :: 9.65
19) Cn1cc(-c2ccncc2)c(-c2ccc(OCc3nc4ccccc4nc3N3CCNCC3)cc2)n1 [Example 42] :: 8.96
20) CCn1cc(-c2ccncc2)c(-c2ccc(OCc3cc(C(=O)N=S(C)(C)=O)c4ccccc4n3)cc2)n1 [Example 27] :: 10.2
21) Cn1cc(-c2ccncc2)c(-c2ccc(OCc3nc4cccnc4cc3C(=O)N=S(C)(C)=O)cc2)n1 [Example 19] :: 9.43
22) O=C(O)c1cc(COc2ccc(-c3n[nH]cc3-c3ccncc3)cc2)nc2ccccc12 [Example 30] :: 10.2
23) CS(C)(=O)=NC(=O)c1cc(COc2ccc(-c3nn(CC(F)(F)F)cc3-c3ccncc3)cc2)nc2ccccc12 [Example 8] :: 10.2
24) Cn1cc(-c2ccncc2)c(-c2ccc(OCc3nc4ccccc4nc3C(=O)N=S(C)(C)=O)cc2)n1 [Example 18] :: 9.34
25) Cn1cc(-c2ccncc2)c(-c2ccc(OCc3nc(N4CCNCC4)c4ccccc4n3)cc2)n1 [Example 40] :: 8.98
26) Cn1cc(-c2ccncc2)c(-c2ccc(OCc3nc4ccccc4cc3C(=O)NS(C)(=O)=O)cc2)n1 [Example 9] :: 10.1
27) Cn1cc(-c2ccncc2)c(-c2ccc(OCc3cc(C(=O)N=S(C)(C)=O)c4ccccc4n3)cc2)n1 [Example 11] :: 10.1
28) Cn1cc(-c2ccncc2)c(-c2ccc(OCc3nc(C(=O)N=S(C)(C)=O)c4ccccc4n3)cc2)n1 [Example 17] :: 9.92
29) Cn1cc(-c2ccncc2)c(-c2ccc(OCc3nc4ccc(F)cc4cc3C(=O)N=S(C)(C)=O)cc2)n1 [Example 22] :: 9.49
30) CN(C(=O)c1cc(COc2ccc(-c3nn(C)cc3-c3ccncc3)cc2)nc2ccccc12)S(C)(=O)=O [Example 16] :: 9.87
